assay: P-glycoprotein substrates identified in KB-8-5-11 adenocarcinoma cell line, qHTS therapeutic library screen (AID 1346987); note: % is set by controls: 0 for no effect and ±100 for the full control effect; nearly all actives have a fitted effect of over 65% in size
assay_conditions: KB-8-5-11 (P-gp overexpressing) viability, CellTiter-Glo, 72 h; series mostly up to 44.5 µM
Results filed as inconclusive are left out. Calls of active or inactive are those of the source. Calls come from the whole dose curve; as a rule, active = well fitted inhibition curve with a large enough effect; inconclusive = small, poorly fitted or top-dose-only effect; inactive = flat fitted curve, though single readings scatter.
Provide the recorded activity change, negative = cytotoxicity for the entries that follow.

// activity change, negative = cytotoxicity lookup, molecule = CC(C)=CCC/C(C)=C/CC/C(C)=C/COC1OC(COC2OCC(OC3OCC(O)C(O)C3O)C(O)C2O)C(O)C(OC2OC(C)C(OC3OC(C)C(OC4OCC(OC5OC(C)C(O)C(O)C5O)C(O)C4O)C(O)C3O)C(O)C2O)C1O (stereo not drawn) , result: 7.18% [at 9.29 µM] (inactive)

// activity change, negative = cytotoxicity lookup, molecule = C=CC1C(OC2OC(CO)C(O)C(O)C2O)OC=C(C(=O)OC)C1CC(=O)OCC1C(C)C(O)CC1C(CO)COC(=O)CC1C(C(=O)O)=COC(OC2OC(CO)C(O)C(O)C2O)/C1=C\C (stereo not drawn) , result: -0.744% [at 9.29 µM] (inactive)

// activity change, negative = cytotoxicity lookup, molecule = CC1OC(OC2C(C)OC(OC3C(OC(=O)C45CCC(C)(C)CC4C4=CCC6C7(C)CCC(OC8OC(C(=O)O)C(O)C(O)C8OC8OC(CO)C(O)C(OC9OC(C)C(O)C(O)C9O)C8O)C(C)(CO)C7CCC6(C)C4(C)CC5)OC(CO)C(O)C3O)C(O)C2O)C(O)C(O)C1O (stereo not drawn) , result: 1.71% [at 9.29 µM] (inactive)

// activity change, negative = cytotoxicity lookup, molecule = CC(=O)N[C@H]1[C@H](O[C@H]2CC[C@@]3(C)C(CC[C@]4(C)C3CC=C3[C@@H]5CC(C)(C)CC[C@]5(C(=O)OC5OCC(O)C(O)C5O)CC[C@]34C)C2(C)C)O[C@H](COC2OC(C)C(O)C(OC3OC(C)C(O)C(O)C3O)C2O)[C@@H](O)[C@@H]1O (stereo partly drawn) , result: 4.96% [at 9.29 µM] (inactive)

// activity change, negative = cytotoxicity lookup, molecule = COc1ccc(CC2C(=O)NC(C)C(=O)N(C)C3Cc4ccc(cc4)Oc4cc(ccc4OC4OC(CO)C(O)C(O)C4O)CC(C(=O)NC(C)C(=O)NC(C)C(=O)N2C)N(C)C3=O)cc1 (stereo not drawn) , result: -5.43% [at 9.29 µM] (inactive)

// activity change, negative = cytotoxicity lookup, molecule = C[C@@H]1CC[C@]2(C(=O)O[C@@H]3O[C@H](CO)[C@@H](O)[C@H](O)[C@H]3O)CC[C@]3(C)C(=CCC4[C@@]5(C)C[C@@H](O)[C@H](O)[C@@](C)(C(=O)O[C@H]6[C@H](O)C[C@@]7(C)C(CC[C@]8(C)C7CC=C7[C@H]9[C@](C(=O)O[C@@H]%10O[C@H](CO)[C@@H](O)[C@H](O)[C@H]%10O)(CC[C@@H](C)[C@@]9(C)O)CC[C@]78C)[C@@]6(CO)C(=O)O)C5CC[C@]43C)[C@@H]2[C@]1(C)O (stereo partly drawn) , result: 1.31% [at 9.29 µM] (inactive)

// activity change, negative = cytotoxicity lookup, molecule = C=CC(C)(O)CC/C=C(\C)C(=O)OC1C(O)C(CO)OC(OC(=O)C23CCC(C)(C)CC2C2=CCC4C5(C)CCC(OC6OC(COC7OCC(OC(C)=O)C(O)C7OC7OC(COC(C)=O)C(O)C(O)C7O)C(O)C(O)C6O)C(C)(C)C5CCC4(C)C2(C)C(O)C3O)C1OC1OCC(OC2OCC(O)C(OC3OCC(O)C(O)C3O)C2O)C(O)C1O (stereo not drawn) , result: 9.63% [at 5.11 µM] (inactive)

New cases:
// activity change, negative = cytotoxicity lookup, molecule = CC(CCC1(O)OC2CC3C4CCC5CC(O[C@@H]6O[C@H](CO)[C@@H](O)[C@H](O)[C@H]6O[C@@H]6O[C@@H](C)[C@H](O)[C@@H](O)[C@H]6O)C(O)CC5(C)C4CCC3(C)C2C1C)CO[C@@H]1O[C@H](CO)[C@@H](O)[C@H](O)[C@H]1O (stereo partly drawn) , result: 1.44% [at 9.29 µM] (inactive)

Ref: PubChem BioAssay (NCATS)
